The following molecules have recorded log10(IC50) on Vascular endothelial growth factor receptor 2 (Homo sapiens).
Sequence (P35968 whole entry): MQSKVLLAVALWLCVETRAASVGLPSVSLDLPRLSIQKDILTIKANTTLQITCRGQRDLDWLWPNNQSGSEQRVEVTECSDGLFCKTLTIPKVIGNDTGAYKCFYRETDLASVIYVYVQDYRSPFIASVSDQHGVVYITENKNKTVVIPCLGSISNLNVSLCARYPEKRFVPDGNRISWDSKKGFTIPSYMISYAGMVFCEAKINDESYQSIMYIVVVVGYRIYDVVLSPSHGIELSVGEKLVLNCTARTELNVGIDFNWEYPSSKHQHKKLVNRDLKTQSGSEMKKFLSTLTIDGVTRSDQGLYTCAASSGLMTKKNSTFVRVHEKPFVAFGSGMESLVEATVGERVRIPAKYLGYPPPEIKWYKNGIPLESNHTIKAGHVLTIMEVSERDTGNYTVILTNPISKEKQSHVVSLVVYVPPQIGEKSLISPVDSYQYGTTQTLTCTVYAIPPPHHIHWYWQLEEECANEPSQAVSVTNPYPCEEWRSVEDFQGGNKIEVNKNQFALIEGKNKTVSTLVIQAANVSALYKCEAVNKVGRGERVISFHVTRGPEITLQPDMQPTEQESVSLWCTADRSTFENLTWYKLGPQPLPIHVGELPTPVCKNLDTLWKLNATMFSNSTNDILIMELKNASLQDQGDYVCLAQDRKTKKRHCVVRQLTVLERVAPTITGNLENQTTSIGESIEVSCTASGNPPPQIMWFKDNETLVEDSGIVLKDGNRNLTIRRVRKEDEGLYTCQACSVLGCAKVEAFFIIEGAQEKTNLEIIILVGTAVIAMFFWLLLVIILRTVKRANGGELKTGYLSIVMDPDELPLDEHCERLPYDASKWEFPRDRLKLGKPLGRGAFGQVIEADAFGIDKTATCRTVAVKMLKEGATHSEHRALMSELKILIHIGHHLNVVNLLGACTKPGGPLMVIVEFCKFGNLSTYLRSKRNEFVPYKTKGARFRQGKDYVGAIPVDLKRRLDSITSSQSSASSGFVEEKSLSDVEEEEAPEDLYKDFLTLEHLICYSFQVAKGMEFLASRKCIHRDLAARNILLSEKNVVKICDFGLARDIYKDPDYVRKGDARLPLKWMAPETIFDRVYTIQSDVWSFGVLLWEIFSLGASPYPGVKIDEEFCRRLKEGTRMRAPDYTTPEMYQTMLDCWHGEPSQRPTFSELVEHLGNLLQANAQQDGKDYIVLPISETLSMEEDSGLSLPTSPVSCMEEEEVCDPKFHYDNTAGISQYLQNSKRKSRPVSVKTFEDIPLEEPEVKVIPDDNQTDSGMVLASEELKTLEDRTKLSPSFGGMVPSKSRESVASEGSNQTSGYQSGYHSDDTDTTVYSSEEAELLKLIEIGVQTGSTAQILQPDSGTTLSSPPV
Record value = log10 of IC50 given in nM.

log10(IC50) on Vascular endothelial growth factor receptor 2 (Homo sapiens) for O=C1Nc2ccc(C(F)(F)F)cc2/C1=C/c1cc2c([nH]1)CCN(C(=O)N1CCOCC1)C2 is 1.92

log10(IC50) on Vascular endothelial growth factor receptor 2 (Homo sapiens) for COc1ccc2c(c1)/C(=C/c1[nH]c3c(c1Cl)CN(C(C)=O)CC3)C(=O)N2 is 1.94

log10(IC50) on Vascular endothelial growth factor receptor 2 (Homo sapiens) for CC(=O)N1CCc2[nH]c(/C=C3\C(=O)Nc4ccc(C#N)cc43)cc2C1 is 1.30

log10(IC50) on Vascular endothelial growth factor receptor 2 (Homo sapiens) for COc1ccc2c(c1)/C(=C/c1cc3c([nH]1)CCN(C(=O)CCN)C3)C(=O)N2 is 0.90

log10(IC50) on Vascular endothelial growth factor receptor 2 (Homo sapiens) for COc1ccc2c(c1)/C(=C/c1cc3c([nH]1)CCN(C(=O)N1CCN(C)CC1)C3)C(=O)N2 is 0.78

log10(IC50) on Vascular endothelial growth factor receptor 2 (Homo sapiens) for CN1CCC(Nc2ccc3c(c2)/C(=C/c2cc4c([nH]2)CCN(C(=O)N2CCOCC2)C4)C(=O)N3)CC1 is 0.48

====

- Assay target: ALK tyrosine kinase receptor (Homo sapiens)
- Sequence (Q9UM73 whole entry): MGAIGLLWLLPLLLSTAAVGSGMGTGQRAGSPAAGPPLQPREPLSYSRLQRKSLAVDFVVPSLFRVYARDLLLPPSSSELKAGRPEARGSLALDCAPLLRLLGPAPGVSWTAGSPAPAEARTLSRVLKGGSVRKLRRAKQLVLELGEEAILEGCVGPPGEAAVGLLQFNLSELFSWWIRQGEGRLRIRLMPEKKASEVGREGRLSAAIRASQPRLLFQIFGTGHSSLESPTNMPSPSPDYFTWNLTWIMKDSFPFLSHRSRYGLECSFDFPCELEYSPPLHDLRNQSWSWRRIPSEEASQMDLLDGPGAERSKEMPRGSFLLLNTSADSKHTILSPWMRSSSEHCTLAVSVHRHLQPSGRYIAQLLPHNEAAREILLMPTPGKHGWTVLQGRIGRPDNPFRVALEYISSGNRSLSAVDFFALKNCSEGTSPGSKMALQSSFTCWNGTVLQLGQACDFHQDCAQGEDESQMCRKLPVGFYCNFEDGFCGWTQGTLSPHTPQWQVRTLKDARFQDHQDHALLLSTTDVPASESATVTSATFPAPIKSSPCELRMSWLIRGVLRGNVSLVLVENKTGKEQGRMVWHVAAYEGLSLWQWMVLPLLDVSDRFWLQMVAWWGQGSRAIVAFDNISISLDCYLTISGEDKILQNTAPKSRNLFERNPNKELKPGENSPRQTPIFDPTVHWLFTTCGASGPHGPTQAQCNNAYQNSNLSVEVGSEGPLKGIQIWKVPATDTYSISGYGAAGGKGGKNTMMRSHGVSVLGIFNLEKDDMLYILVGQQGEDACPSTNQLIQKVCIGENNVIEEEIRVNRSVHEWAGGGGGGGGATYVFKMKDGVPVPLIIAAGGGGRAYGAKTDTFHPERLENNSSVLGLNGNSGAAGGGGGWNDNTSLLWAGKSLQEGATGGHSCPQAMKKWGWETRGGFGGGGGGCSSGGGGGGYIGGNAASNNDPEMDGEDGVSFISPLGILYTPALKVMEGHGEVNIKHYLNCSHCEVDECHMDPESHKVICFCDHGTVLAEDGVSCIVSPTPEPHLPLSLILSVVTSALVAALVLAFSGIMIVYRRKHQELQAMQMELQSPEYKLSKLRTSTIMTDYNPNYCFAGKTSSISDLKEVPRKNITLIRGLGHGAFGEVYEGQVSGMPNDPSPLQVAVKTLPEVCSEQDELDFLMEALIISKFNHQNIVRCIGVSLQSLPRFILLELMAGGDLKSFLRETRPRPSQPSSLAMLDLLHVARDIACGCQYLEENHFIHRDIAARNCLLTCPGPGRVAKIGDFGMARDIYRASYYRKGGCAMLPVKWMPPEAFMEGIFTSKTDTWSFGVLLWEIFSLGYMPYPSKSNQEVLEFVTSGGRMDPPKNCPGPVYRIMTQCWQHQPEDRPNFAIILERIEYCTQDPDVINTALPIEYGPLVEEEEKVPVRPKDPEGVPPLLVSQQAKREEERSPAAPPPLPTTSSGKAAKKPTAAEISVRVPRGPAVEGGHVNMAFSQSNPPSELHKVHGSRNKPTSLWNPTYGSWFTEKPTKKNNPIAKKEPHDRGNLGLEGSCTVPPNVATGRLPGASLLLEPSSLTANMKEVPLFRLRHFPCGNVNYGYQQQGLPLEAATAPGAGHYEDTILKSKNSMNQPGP
pIC50: −log10 of the molar value.
Tag: YES if measured pIC50 is not below 6, NO if it is.

// inclusive: pIC50 at least 6? input: COc1ccc2c(c1)/C(=C/c1cc3c([nH]1)CCN(C(=O)CCN)C3)C(=O)N2
YES

// inclusive: pIC50 at least 6? input: CC(=O)N1CCc2[nH]c(/C=C3\C(=O)Nc4ccc([N+](=O)[O-])cc43)cc2C1
NO

// inclusive: pIC50 at least 6? input: COc1ccc2c(c1)/C(=C/c1cc3c([nH]1)CCN(C(=O)N1CCN(C)CC1)C3)C(=O)N2
YES

// inclusive: pIC50 at least 6? input: CC(=O)Nc1ccc2c(c1)/C(=C/c1cc3c([nH]1)CCN(C(=O)N1CCOCC1)C3)C(=O)N2
YES

// inclusive: pIC50 at least 6? input: CC(=O)N1CCc2[nH]c(/C=C3\C(=O)Nc4ccc(C(F)(F)F)cc43)cc2C1
NO

====

The following compounds have recorded IC50 on Platelet-derived growth factor receptor alpha (Homo sapiens, UniProt P16234).
Sequence (P16234 whole entry): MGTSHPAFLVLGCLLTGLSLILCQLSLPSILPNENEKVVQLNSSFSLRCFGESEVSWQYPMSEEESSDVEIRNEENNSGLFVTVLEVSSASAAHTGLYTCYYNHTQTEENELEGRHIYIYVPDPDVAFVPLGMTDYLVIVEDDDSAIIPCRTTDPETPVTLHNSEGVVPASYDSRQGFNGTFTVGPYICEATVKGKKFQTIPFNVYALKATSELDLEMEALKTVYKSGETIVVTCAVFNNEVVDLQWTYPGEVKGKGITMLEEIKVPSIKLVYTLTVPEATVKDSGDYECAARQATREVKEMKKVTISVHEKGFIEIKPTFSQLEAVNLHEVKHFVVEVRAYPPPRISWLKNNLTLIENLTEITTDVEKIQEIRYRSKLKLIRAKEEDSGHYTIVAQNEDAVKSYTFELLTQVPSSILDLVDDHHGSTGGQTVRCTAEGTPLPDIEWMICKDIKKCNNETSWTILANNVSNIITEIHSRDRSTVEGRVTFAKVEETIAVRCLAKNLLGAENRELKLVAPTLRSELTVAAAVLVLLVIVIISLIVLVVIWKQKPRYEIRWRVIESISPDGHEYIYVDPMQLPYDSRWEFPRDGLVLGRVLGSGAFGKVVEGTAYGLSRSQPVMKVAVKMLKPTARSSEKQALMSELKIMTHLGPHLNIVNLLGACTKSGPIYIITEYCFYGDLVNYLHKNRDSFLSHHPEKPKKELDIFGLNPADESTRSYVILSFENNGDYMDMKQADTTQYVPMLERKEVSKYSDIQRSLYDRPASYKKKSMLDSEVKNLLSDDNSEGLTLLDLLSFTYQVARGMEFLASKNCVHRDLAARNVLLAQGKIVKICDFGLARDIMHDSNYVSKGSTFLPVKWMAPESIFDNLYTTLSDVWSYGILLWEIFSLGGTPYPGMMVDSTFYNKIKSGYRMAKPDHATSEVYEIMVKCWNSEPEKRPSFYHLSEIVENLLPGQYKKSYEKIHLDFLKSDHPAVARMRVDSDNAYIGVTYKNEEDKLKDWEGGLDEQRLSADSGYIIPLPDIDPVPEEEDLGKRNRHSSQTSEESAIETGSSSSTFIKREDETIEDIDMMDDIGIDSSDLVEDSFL
Quick note: give the figure in nM, leave out the unit.

The compound identified as COc1ccc2c(c1)/C(=C/c1cc3c([nH]1)CCN(C(C)=O)C3)C(=O)N2 registered its IC50 at 250

The compound identified as CN1CCC(Nc2ccc3c(c2)/C(=C/c2cc4c([nH]2)CCN(C(=O)N2CCOCC2)C4)C(=O)N3)CC1 registered its IC50 at 13

The compound identified as O=C1Nc2ccc(C(F)(F)F)cc2/C1=C/c1cc2c([nH]1)CCN(C(=O)N1CCOCC1)C2 registered its IC50 at 46

The compound identified as COc1ccc2c(c1)/C(=C/c1cc3c([nH]1)CCN(C(=O)N1CCOCC1)C3)C(=O)N2 registered its IC50 at 150

The compound identified as CC(=O)N1CCc2[nH]c(/C=C3\C(=O)Nc4ccc([N+](=O)[O-])cc43)cc2C1 registered its IC50 at 31

The compound identified as COc1ccc2c(c1)/C(=C/c1cc3c([nH]1)CCN(C(=O)c1cnoc1C)C3)C(=O)N2 registered its IC50 at 540

The compound identified as CC(=O)N1CCc2[nH]c(/C=C3\C(=O)Nc4ccc(OC(C)C)cc43)cc2C1 registered its IC50 at 1700
